- Test system: AP-1 induced transcriptional activity
- run description: Cellular transrepressional assay (AP-1 luciferase reporter, PMA-activated A549 cell)
- Type: cell-based
- test context: Homo sapiens; A549 cell, 10 ng/ml PMA, 7 hours; read-out: AP-1 (EC50, nM) (measured in cellular transrepression assay)
reported endpoint: EC50

// known answers, use as guide
| compound structure string | reported endpoint | val |
| --- | --- | --- |
| CC(=O)NC(=O)C(C)(C)[C@@H]1c2ccc(-c3ccc(C(=O)N4CCOCC4)cc3)nc2Oc2c(F)cccc21 | EC50 | 4.97 nM |
| COc1ccc2c(c1)Oc1ccccc1[C@@H]2C(C)(C)C(=O)NC(N)=O | EC50 | 5000 nM |

Next item in the queue.
Record lookup: for AP-1 induced transcriptional activity, what EC50 belongs to `CC(C)(C(=O)NC(N)=O)[C@@H]1c2ccc(-c3ccc(C(=O)N4CCCCC4)cc3)nc2Oc2c(F)cccc21` ? 5.89 nM

---

- target system: human full-length glucocorticoid receptor (Homo sapiens (Human))
- Sequence (P04150 whole entry): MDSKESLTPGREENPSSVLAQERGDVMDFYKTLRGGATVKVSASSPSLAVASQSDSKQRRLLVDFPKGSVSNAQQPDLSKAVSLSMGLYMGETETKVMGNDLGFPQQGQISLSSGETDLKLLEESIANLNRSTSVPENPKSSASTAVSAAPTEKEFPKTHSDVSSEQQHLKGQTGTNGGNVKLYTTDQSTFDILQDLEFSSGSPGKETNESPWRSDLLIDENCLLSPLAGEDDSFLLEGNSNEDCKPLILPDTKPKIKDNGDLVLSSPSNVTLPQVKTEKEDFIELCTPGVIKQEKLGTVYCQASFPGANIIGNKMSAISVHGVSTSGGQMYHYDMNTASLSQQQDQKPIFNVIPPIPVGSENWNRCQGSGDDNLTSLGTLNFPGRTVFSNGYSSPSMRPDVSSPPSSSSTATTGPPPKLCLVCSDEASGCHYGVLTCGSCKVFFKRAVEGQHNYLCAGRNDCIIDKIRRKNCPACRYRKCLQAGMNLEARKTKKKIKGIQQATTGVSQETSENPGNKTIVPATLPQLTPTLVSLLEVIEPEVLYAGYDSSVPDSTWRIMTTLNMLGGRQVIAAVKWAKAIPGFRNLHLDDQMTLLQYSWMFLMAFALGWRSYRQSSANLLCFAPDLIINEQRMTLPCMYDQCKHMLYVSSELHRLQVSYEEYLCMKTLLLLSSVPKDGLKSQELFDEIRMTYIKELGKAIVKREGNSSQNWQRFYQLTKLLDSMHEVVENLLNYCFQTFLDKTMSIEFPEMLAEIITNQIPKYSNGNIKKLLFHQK
- run description: Glucocorticoid Receptor Binding Assay (II), fluorescence polarization competitor kit
reported endpoint: pKi
When answering, recall that pKi equals minus log10 of the concentration in mol/L, and write that number alone.

Data request, read-out pKi, for `CC(C)Oc1ccc(-c2ccc3c(n2)Oc2c(F)cccc2[C@@H]3C(C)(C)C(=O)NC(N)=O)cn1` 9.20

---

- Tested on: AP-1 induced transcriptional activity
- run description: Cellular transrepressional assay (AP-1 luciferase reporter, PMA-activated A549 cell)
- Type: cell-based
- test context: Homo sapiens; A549 cell, 10 ng/ml PMA, 7 hours; read-out: AP-1 (EC50, nM) (measured in cellular transrepression assay)
Listing: EC50 of selected molecules
# unit: nM | format: bare number

| molecule | target system | EC50 [nM] |
| --- | --- | --- |
| COc1ccc(CNC(=O)NC(=O)C(C)(C)[C@@H]2c3ccc(-c4ccc(C(C)(C)O)cc4)nc3Oc3c(F)cccc32)cc1 [Example 29] | AP-1 induced transcriptional activity | 646 |

Quick one: EC50 for CC(C)Oc1ccc(-c2ccc3c(n2)Oc2c(F)cccc2[C@@H]3C(C)(C)C(=O)NC(N)=O)cn1 [Example 68] ? 8.57

Please look up its EC50: CC(=O)NC(=O)C(C)(C)[C@@H]1c2ccc(-c3ccc(C(=O)N(C)C)cc3)nc2Oc2c(F)cccc21 [Example 3] 267

I have this molecule here, CC(C)(C(=O)NC(N)=O)C1c2ccccc2Oc2ccccc21 [Example 75] , and I need its recorded EC50. 5000

EC50 lookup needed for CC(C)(C(=O)NC(N)=O)[C@H]1c2ccccc2Oc2nc(-c3ccc(C(=O)N4CCOCC4)cc3)ccc21 [Example 28] , thanks. 7.63

Could you tell me which EC50 is on file for CC(C)(O)CNC(=O)NC(=O)C(C)(C)[C@@H]1c2ccc(-c3ccc(C(C)(C)O)cc3)nc2Oc2c(F)cccc21 [Example 79] ? 789

Which EC50 value belongs to CC(C)(O)c1ccc(-c2ccc3c(n2)Oc2ccccc2[C@@H]3C(C)(C)C(=O)NC(N)=O)cc1 [Example 70] ? 8.94

Which value of EC50 has been reported for CC(C)(C(=O)NC(=O)N1CCOCC1)[C@@H]1c2ccc(-c3ccc(C(=O)N4CCOCC4)cc3)nc2Oc2c(F)cccc21 [Example 10] in the records? 623

Bench note: what EC50 did CC(C)(O)CNC(=O)NC(=O)C(C)(C)[C@@H]1c2ccc(-c3ccc(C(=O)N4CCOCC4)cc3)nc2Oc2c(F)cccc21 [Example 78] show? 340

For the molecule CC(C)S(=O)(=O)c1ccc(-c2ccc3c(n2)Oc2ccccc2[C@@H]3C(C)(C)C(=O)NC(N)=O)cc1 [Example 82] , what EC50 is on record? 6.69

Would you mind telling me what EC50 value was observed for CC(C)(C(=O)NC(N)=O)[C@H]1c2ccccc2Oc2nc(-c3ccncc3)ccc21 [Example 72] ? 36

Which EC50 is listed for CNC(=O)NC(=O)C(C)(C)[C@@H]1c2ccc(Cl)nc2Oc2c(F)cccc21 [Example 14] ? 337

For CNC(=O)NC(=O)C(C)(C)[C@@H]1c2ccc(-c3ccc(C(C)(C)O)cc3)nc2Oc2c(F)cccc21 [Example 15] , what is its reported EC50? 47.1

Fill in the blank: the reported EC50 of CC(C)(C(=O)NC(N)=O)[C@@H]1c2ccc(-c3ccncc3)nc2Oc2c(F)cccc21 [Example 73] is ____. 20.1

Quick one: EC50 for CC(C)(C(=O)NC(N)=O)[C@@H]1c2ccc(-c3ccc(C(=O)N4CC[C@@H](F)C4)cc3)nc2Oc2c(F)cccc21 [Example 85] ? 0.8
